system: PIP5K1A; conditions: concentration: 1 μM,replicates: in singlicate; n = 1;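 note: KINOMEscan kinase panel screen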
Measured %Inh, listed per entry for reference.
Metric: %Inh (%)

1) C[C@@H](Oc1cc(-n2cnc3cc(-c4ccncc4)ccc32)sc1C(N)=O)c1ccccc1Cl [GSK479719]
0
2) COc1cc2nccc(Nc3ccc(Oc4ccccc4)cc3)c2cc1OC.Cl [GI261656]
10
3) COC(=O)c1cccc(NC(=O)NC2CCN(c3ccnc(NCc4ccc(F)cc4)n3)CC2)c1 [GSK1379860]
0
4) COc1cc2ncn(-c3cc(OCC4CCCCC4)c(C(N)=O)s3)c2cc1OC [GSK204559]
0
